Quick reference: GI50 of the listed items.
Test system: COLO 205
Assay: NCI tumour cell line growth inhibition, 48 h
Calls of active or inactive are those of the source. Cut-off read from the data, not from the text of the source: active = GI50 up to about 1.1 µM and inactive = higher.

- molecule: "CCCCCCOc1ccc(C(=O)NOCc2ccccc2)cc1"
  system: "COLO 205"
  GI50: "> 100 µM (inactive)"
- molecule: "CC(C)=CCC12Cc3ccc(O)cc3C(C(C)CN1)C2C (stereo unspecified)"
  system: "COLO 205"
  GI50: "36.9 µM (inactive)"
- molecule: "CCC(C#N)N(Cc1ccc(CN(C(=O)c2ccccc2)C(C#N)CC)cc1)C(=O)c1ccccc1 (stereo unspecified)"
  system: "COLO 205"
  GI50: "14.7 µM (inactive)"
- molecule: "C[C@H](CN1CC(=O)NC(=O)C1)N1CC(=O)NC(=O)C1"
  system: "COLO 205"
  GI50: "11.7 µM (inactive)"
- molecule: "FC(F)(F)C1=NC(=NNc2nnc(-c3ccccc3)c(-c3ccccc3)n2)N=C(C(F)(F)F)C1"
  system: "COLO 205"
  GI50: "6.08 µM (inactive)"

Prompt line: Give the measured GI50 for CC[P+]1(c2ccccc2)CCCCC1
Response line: > 100 µM (inactive)
